Quick reference for IC50 among some molecules
# target-desc: APOL1 (Homo sapiens)
# Sequence (O14791 1-398 S342G/I384M): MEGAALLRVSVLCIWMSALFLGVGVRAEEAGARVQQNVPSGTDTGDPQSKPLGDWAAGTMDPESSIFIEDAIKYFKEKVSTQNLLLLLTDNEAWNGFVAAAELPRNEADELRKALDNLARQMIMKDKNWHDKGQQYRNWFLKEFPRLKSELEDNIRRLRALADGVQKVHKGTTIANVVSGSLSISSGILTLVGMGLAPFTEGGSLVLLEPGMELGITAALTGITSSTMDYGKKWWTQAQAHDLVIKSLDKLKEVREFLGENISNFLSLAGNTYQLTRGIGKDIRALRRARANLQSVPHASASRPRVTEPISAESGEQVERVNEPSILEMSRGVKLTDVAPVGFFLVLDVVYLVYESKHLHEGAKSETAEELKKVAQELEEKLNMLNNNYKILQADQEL
# measurement-notes: MultiTox-Fluor Multiplex Cytotoxicity Assay in tet-inducible APOL1 T-REx-HEK293 cells (cell rescue, ratio of dead to live cells)
# Assay type: cell-based
# condition-parameters: tet-inducible transgenic APOL1 T-REx-HEK293 cell lines, 50 ng/mL tet, 24 hours; read-out: IP50 (i.e., IC50 for cell proliferation)

{"molecule": "CCc1cc2c(s1)CCO[C@@]21CCN(C[C@H]2C[C@@H](NC(=O)[C@H]3CCCO3)C2)[C@@H](C)C1", "target-desc": "APOL1 (Homo sapiens)", "IC50": "100 to 500 nM"}
{"molecule": "CCc1cc2c(s1)CCO[C@@]21CCN(C[C@H]2C[C@@H](NC(=O)[C@H]3C[C@@H]3C(F)F)C2)[C@@H](C)C1", "target-desc": "APOL1 (Homo sapiens)", "IC50": "< 100 nM"}
{"molecule": "C[C@H]1C[C@@]2(CCN1Cc1ccc(F)cc1)OCCc1c2sc(Cl)c1CO", "target-desc": "APOL1 (Homo sapiens)", "IC50": "100 to 500 nM"}
{"molecule": "CCc1cc2c(s1)CCO[C@@]21CCN(CC2CN(C(=O)C3CCCCC3)C2)[C@@H](C)C1", "target-desc": "APOL1 (Homo sapiens)", "IC50": "100 to 500 nM"}
{"molecule": "CCc1cc2c(s1)CCOC21CCN(Cc2cnn(C(C)=O)c2)CC1", "target-desc": "APOL1 (Homo sapiens)", "IC50": "100 to 500 nM"}
{"molecule": "COc1ncc(CN2CC[C@]3(C[C@@H]2C)OCCc2cc(CC(F)F)sc23)c(OC)n1", "target-desc": "APOL1 (Homo sapiens)", "IC50": "< 100 nM"}
{"molecule": "COC(=O)c1c(C(F)(F)F)sc2c1CCO[C@@]21CCN(Cc2cn(CCS(C)(=O)=O)nn2)[C@@H](C)C1", "target-desc": "APOL1 (Homo sapiens)", "IC50": "100 to 500 nM"}
{"molecule": "CC1Cc2sc(Cl)cc2C2(CCN(Cc3cnn(C)c3)[C@@H](C)C2)O1 (single isomer, unassigned) [Compound 528]", "target-desc": "APOL1 (Homo sapiens)", "IC50": "100 to 500 nM"}
{"molecule": "CCc1cc2c(s1)CCO[C@@]21CCN(CC2CN(C(=O)Cn3cncn3)C2)[C@@H](C)C1", "target-desc": "APOL1 (Homo sapiens)", "IC50": "100 to 500 nM"}
{"molecule": "CCc1cc2c(s1)CCO[C@@]21CCN(Cc2cnc(NCC(O)CO)nc2)[C@@H](C)C1 (stereo partly shown)", "target-desc": "APOL1 (Homo sapiens)", "IC50": "< 100 nM"}
{"molecule": "C[C@H]1C[C@@]2(CCN1Cc1cnn(CC(C)(O)CO)c1)OC[C@@H](O)c1cc(C(F)(F)F)sc12 (stereo partly shown)", "target-desc": "APOL1 (Homo sapiens)", "IC50": "< 100 nM"}
{"molecule": "C[C@H]1C[C@@]2(CCN1Cc1ccc(F)cc1)OCCc1cc(Cl)sc12", "target-desc": "APOL1 (Homo sapiens)", "IC50": "100 to 500 nM"}
{"molecule": "CCc1cc2c(s1)CCO[C@@]21CCN(CC2CN(C(=O)OC)C2)[C@@H](C)C1", "target-desc": "APOL1 (Homo sapiens)", "IC50": "500 to 1000 nM"}

Reference source for all entries: patent US20250171459A1
